Where do these numbers come from? They come from paper PMC11345841.

# measuredOn: FLT4 (Homo sapiens)
# Construct: purchased Eurofins DiscoverX KINOMEscan (scanTK)
# Sequence (P35916 25-1363): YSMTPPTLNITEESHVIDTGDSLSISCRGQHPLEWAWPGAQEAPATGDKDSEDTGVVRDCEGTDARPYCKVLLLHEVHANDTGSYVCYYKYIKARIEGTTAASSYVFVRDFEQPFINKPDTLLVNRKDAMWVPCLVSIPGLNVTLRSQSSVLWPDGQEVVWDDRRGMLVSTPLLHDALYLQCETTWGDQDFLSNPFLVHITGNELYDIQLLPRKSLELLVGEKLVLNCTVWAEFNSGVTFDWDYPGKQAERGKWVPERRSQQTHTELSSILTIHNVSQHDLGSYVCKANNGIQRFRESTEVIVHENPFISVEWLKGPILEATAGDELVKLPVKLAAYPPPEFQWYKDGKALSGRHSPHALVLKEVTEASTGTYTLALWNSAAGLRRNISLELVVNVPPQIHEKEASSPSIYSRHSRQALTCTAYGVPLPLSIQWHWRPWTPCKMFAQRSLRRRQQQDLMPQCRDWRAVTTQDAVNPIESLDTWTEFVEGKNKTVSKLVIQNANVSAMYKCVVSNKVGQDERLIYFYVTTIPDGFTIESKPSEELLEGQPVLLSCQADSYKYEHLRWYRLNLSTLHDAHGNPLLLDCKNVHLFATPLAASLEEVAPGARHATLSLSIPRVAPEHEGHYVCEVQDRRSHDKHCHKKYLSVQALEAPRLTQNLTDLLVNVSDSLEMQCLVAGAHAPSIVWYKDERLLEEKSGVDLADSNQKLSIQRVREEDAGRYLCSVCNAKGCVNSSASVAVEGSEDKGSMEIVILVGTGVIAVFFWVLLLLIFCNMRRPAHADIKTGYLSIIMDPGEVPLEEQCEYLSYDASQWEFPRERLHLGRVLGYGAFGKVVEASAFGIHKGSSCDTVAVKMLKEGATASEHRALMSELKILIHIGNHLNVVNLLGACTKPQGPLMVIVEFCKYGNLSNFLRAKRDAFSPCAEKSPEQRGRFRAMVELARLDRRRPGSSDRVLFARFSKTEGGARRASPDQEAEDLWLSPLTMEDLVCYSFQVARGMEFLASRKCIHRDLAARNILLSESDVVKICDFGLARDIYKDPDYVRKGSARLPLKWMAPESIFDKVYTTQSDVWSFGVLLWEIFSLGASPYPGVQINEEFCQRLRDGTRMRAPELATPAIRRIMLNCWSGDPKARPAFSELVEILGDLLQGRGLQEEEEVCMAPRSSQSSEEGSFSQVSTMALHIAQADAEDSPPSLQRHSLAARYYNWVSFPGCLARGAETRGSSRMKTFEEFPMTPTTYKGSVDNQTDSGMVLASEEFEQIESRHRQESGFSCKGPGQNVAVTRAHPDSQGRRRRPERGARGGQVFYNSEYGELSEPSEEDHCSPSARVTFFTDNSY
# protocolDetails: KINOMEscan ScanTK
# Type: binding
# conditionInfo: read-out: %Control @1000nM
Strictly below 90% in remaining binding at 1 µM: yes. Otherwise: no.

Q. Hello, is remaining binding at 1 µM of the following molecule strictly smaller than 90%? C=CC(=O)N1CCC[C@@H](n2nc(-c3ccc(Oc4ccccc4)cc3)c3c(N)ncnc32)C1 [Compound 1g, Ibrutinib, reference compound]
A. yes

Q. Item CCOC(=O)c1cnc(S(C)(=O)=O)nc1N1CCC[C@@H](n2nc(-c3ccc(Oc4ccccc4)cc3)c3c(N)ncnc32)C1 : remaining binding at 1 µM beneath 90%, strictly?
A. no

Q. Is the reported remaining binding at 1 µM for CNC(=O)c1cnc(S(C)(=O)=O)nc1N1CCCC(n2nc(-c3ccc(Oc4ccccc4)cc3)c3c(N)ncnc32)C1 (centres unmarked) strictly below 90%?
A. no
